- Target desc: Jak2 (human Jak2 kinase domain, amino acids 808-1132) (Homo sapiens (Human), UniProt O60674)
- Sequence (O60674 808-1132): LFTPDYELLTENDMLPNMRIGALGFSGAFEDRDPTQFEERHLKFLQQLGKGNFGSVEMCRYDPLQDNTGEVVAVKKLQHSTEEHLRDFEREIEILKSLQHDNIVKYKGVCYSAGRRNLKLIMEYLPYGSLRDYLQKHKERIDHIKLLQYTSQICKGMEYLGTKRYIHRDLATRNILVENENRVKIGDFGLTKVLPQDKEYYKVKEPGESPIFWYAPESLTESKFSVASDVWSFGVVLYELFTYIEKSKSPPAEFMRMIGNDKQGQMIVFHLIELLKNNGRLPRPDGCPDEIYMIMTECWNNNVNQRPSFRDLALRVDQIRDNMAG
- Assay text: Jak2 inhibition assay (Omnia kinase assay)
- Assay type: biochemical
- Stated conditions: read-out: Jak2 Enzyme (% inhibition at 1000 nM), Table 1; 1000 nM test compound
Assign label 1 to entries whose inhibition at 1 µM meets or exceeds 10%; assign label 0 to the rest.

>  <Molecule>
COCCNC(=O)c1cnn2ccc(N3CCC[C@@H]3c3cc(F)cnc3C)nc12

>  <Assigned label>
label 0

$$$$

Is reported inhibition at 1 µM greater than or equal to 10% here: "COc1ccc(F)cc1[C@H]1CCCN1c1ccn2ncc(C(=O)NCC(C)(C)O)c2n1"
label 1

Follow-up entry: "COc1ccc(F)cc1[C@H]1CCCN1c1ccn2ncc(C(=O)N[C@H]3CC[C@H](O)CC3)c2n1"
label 1

Would you mind doing "Cn1cc(F)cc([C@H]2CCCN2c2ccn3ncc(C(=O)NC4CCC4)c3n2)c1=O" as well?
label 1

Same question for "O=C(N[C@@H]1CCC[C@@H]1O)c1cnn2ccc(N3CCC[C@@H]3c3cncc(F)c3)nc12" please.
label 0

Now give it for "C[C@@H](NC(=O)c1cnn2ccc(N3[C@H](CO)CC[C@@H]3c3cncc(F)c3)nc12)C(F)(F)F" too.
label 1

Here is the next molecule: "COc1ncc(F)cc1[C@H]1CCCN1c1ccn2ncc(C(=O)Nc3ccc(=O)[nH]c3)c2n1"
label 1

"O=C(c1cnn2ccc(N3CCC[C@@H]3c3cncc(F)c3)nc12)N1CCC1" ?
label 0

Repeat for the following molecule: "Cc1ncc(F)cc1[C@H]1CCCN1c1ccn2ncc(C(=O)NCCO)c2n1"
label 0

Moving on to "CC(C)(C)NC(=O)c1cnn2ccc(N3CCC[C@@H]3c3cc(F)c[nH]c3=O)nc12"
label 1

Quick one: "O=C(N[C@H]1CC[C@H](C(=O)O)CC1)c1cnn2ccc(N3CCC[C@@H]3c3cc(F)ccc3F)nc12"
label 1

Now the molecule "NS(=O)(=O)CCNC(=O)c1cnn2ccc(N3CCC[C@@H]3c3cc(F)ccc3F)nc12"
label 1

Next up: "NC(=O)c1cnn2ccc(N3CCC[C@@H]3c3cc(F)ccc3OCCN3CCOCC3)nc12"
label 1

Also NC(=O)c1cnn2ccc(N3CCC[C@@H]3c3cc(F)cc(OCC(O)CO)c3)nc12 (stereo partly shown) ?
label 0

And "O=C(NCC1CC1)c1cnn2ccc(N3CCC[C@@H]3c3cncc(F)c3)nc12" ?
label 0

Likewise for "O=C(NC1(CO)CC1)c1cnn2ccc(N3CCC[C@@H]3c3cc(F)ccc3F)nc12" ?
label 1

----------
- Target desc: Jak2 (human Jak2 kinase domain, amino acids 808-1132) (Homo sapiens (Human), UniProt O60674)
- Assay text: Jak2 inhibition assay (Omnia kinase assay)
- Type: biochemical
- Stated conditions: read-out: Jak2 Enzyme (% inhibition at 1000 nM), Table 1; 1000 nM test compound
Each entry gets 0 if its inhibition at 1 µM stays under 10%, and 1 if its inhibition at 1 µM is 10% or above.

Completed entries (count: 3):
>  <Compound>
N#CCNC(=O)c1cnn2ccc(N3CCC[C@@H]3c3cc(F)ccc3F)nc12 [Example 39]

>  <Assigned label>
1

$$$$
>  <Compound>
CC(C)[C@H](CO)NC(=O)c1cnn2ccc(N3CCC[C@@H]3c3cncc(F)c3)nc12 [Example 122]

>  <Assigned label>
0

$$$$
>  <Compound>
COCC(O)CNC(=O)c1cnn2ccc(N3CCCC3c3cncc(F)c3)nc12 (centres unmarked) [Example 119]

>  <Assigned label>
0

$$$$

// inclusive: inhibition at 1 µM at least 10%? input: COCCNC(=O)c1cnn2ccc(N3CCC[C@@H]3c3cc(F)ccc3F)nc12 [Example 172]
1

# iterate: Cc1ncc(F)cc1[C@H]1CCCN1c1ccn2ncc(C(=O)NC3(CO)CC3)c2n1 [Example 193]
0

Param item: O=C(N[C@@H]1CCCC[C@H]1O)c1cnn2ccc(N3CCC[C@@H]3c3cncc(F)c3)nc12 [Example 136]
0

Could you do the same for CC(C)(C)NC(=O)c1cnn2ccc(N3CCC[C@@H]3c3cncc(F)c3)nc12 [Example 53] , please?
0

Item: O=C(NC1CCOCC1)c1cnn2ccc(N3CCC[C@@H]3c3cc(F)ccc3F)nc12 [Example 20]
1

Similarly, CC(C)(O)CNC(=O)c1cnn2ccc(N3CCC[C@@H]3c3cncc(F)c3)nc12 [Example 111] ?
0

One more compound: CC(C)(CF)NC(=O)c1cnn2ccc(N3CCC[C@@H]3c3cncc(F)c3)nc12 [Example 71]
0
